- Test system: Candida glabrata (ATCC no. 48435)
- experimental details: MIC determination by broth microdilution (NCCLS), visual scoring
- Type: cell-based
- conditions used: Nakaseomyces glabratus, ATCC48435, read-out: MIC80 C. glabrata
observation type: MIC80

INSERT INTO assay_data (molecule, reported_result) VALUES
  ('CN1C(=O)C(C=O)C(=O)N(C)C1=O [BA19]', '> 125 µg/mL'),
  ('C/C(=N\Nc1ccc([N+](=O)[O-])cc1[N+](=O)[O-])C1C(=O)N(C)C(=O)N(C)C1=O [BA27]', '> 125 µg/mL'),
  ('O=C1NC(=O)C(/C=N/Nc2ccccc2)C(=O)N1 [BA74]', '2 µg/mL'),
  ('O=C1NC(=O)C(=Cc2ccccc2O)C(=O)N1 [BA47]', '8 µg/mL'),
  ('C/C(=N\Nc1ccccc1)C1C(=O)NC(=O)NC1=O [BA85]', '2 µg/mL'),
  ('O=C1NC(=O)C(C(=O)c2ccccc2)C(=O)N1 [BA1, 5-benzoyl-pyrimidine-2,4,6-trione]', '> 125 µg/mL'),
  ('C/C(=N\Nc1ccccc1)C1C(=O)N(C)C(=O)N(C)C1=O [BA78]', '2 µg/mL'),
  ('C/C(=N\Nc1ccc([N+](=O)[O-])cc1)C1C(=O)NC(=O)NC1=O [BA25]', '2 µg/mL'),
  ('O=C1NC(=O)C(/C(=N/Nc2ccc([N+](=O)[O-])cc2[N+](=O)[O-])c2ccccc2)C(=O)N1 [BA30]', '> 125 µg/mL'),
  ('CN1C(=O)C(C(=O)c2ccccc2)C(=O)N(C)C1=O [BA3]', '> 125 µg/mL'),
  ('O=C1NC(=O)C(/C=N/Nc2ccc([N+](=O)[O-])cc2[N+](=O)[O-])C(=O)N1 [BA24]', '125 µg/mL'),
  ('C/C(=N\CCCCCC(=O)O)C1C(=O)NC(=O)NC1=O [BA29]', '> 125 µg/mL');

Source: patent US20160235752A1
